Parameter: CRF2R Emax %. Scope: all listed entries.
Target: T1, CRF2R; further: reference of the scale not given here
T1 sequence (Q13324 whole entry, species assumed, looked up): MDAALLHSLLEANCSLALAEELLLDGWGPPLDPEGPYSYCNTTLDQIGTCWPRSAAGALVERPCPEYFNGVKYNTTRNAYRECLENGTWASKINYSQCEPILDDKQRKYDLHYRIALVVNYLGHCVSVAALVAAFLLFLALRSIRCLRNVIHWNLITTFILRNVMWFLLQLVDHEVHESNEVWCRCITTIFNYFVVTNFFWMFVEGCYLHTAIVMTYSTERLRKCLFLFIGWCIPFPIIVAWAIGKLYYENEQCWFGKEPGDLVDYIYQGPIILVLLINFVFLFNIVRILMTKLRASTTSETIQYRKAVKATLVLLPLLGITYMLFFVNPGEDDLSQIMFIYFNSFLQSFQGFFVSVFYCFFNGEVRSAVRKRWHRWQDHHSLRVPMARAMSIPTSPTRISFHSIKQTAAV
Assay: cell-based or functional assay
Ends that are not written are not given here.
Reply numerically in %, unit not repeated.

ZGPPISIDVPYQLLRKVIEIEKQEKEKQQAANNARLLARI (C-terminal amide) [SEQ ID NO 375]    100

// DNPSLSIDLPQYLLRTLLELARTQSQRERAEQNAIIFASV-NH2 [SEQ ID NO 339] : CRF2R Emax % value = 47.9

Field CRF2R Emax % (entry NDDPPISIDLPLHLLRNMIEMARIENEREQAGLNAKYLAEV-NH2 [SEQ ID NO 259] ) reads 65
